Kindly supply the reported Dmax values for the records listed here.
measured.target: UniProt P51531
assay.info: MSD SMARCA2 degradation in A549 cell line
Type: cell-based
experimental.parameters: A549, A549 cells, 24 h

Some entries whose results are on file:
compound: C#Cc1ccc(CNC(=O)[C@@H]2C[C@@H](O)CN2C(=O)[C@@H](NC(=O)CCCCCN2CCC(N3CC4(CC(N5CCN6c7cc(-c8ccccc8O)nnc7NC[C@H]6C5)C4)C3)CC2)C(C)(C)C)cc1
endpoint.label: Dmax
result: > 90%
--
compound: Cc1ncsc1-c1ccc(CNC(=O)[C@@H]2C[C@@H](O)CN2C(=O)[C@@H](NC(=O)N2CC3(CCC(N4CCC(c5cnc(N6CCc7[nH]c8nnc(-c9ccccc9O)cc8c7C6C)nc5)CC4)CC3)C2)C(C)(C)C)cc1 (stereo partly drawn)
endpoint.label: Dmax
result: 70 to 90%
--
compound: C#Cc1ccc(CNC(=O)[C@@H]2C[C@@H](O)CN2C(=O)[C@@H](NC(=O)[C@H]2CCC3(CC2)C[C@H](N2CCC(N4CCC(N5CCN6c7cc(-c8ccccc8O)nnc7NC[C@H]6C5)CC4)CC2)C3)C(C)(C)C)c(Cl)c1 (single isomer, unassigned)
endpoint.label: Dmax
result: > 90%
--
compound: C#Cc1ccc([C@H](C)NC(=O)[C@@H]2C[C@@H](O)CN2C(=O)C(c2cc(N3CCC(CN4CCC(N5CCC(N6CCN7c8cc(-c9ccccc9O)nnc8NC[C@H]7C6)CC5)CC4)CC3)no2)C(C)C)c(Cl)c1 (stereo partly drawn)
endpoint.label: Dmax
result: < 50%
--
compound: C#Cc1ccc(CNC(=O)[C@@H]2C[C@@H](O)CN2C(=O)[C@@H](NC(=O)N2CC3(CC(N4CCC(c5cnc(N6CCc7[nH]c8nnc(-c9ccccc9O)cc8c7[C@@H]6C)nc5)CC4)C3)C2)C(C)(C)C)c(OCCCOC)c1
endpoint.label: Dmax
result: > 90%

Dear reader, for each entry below, please note its Dmax.
1. C#Cc1ccc([C@H](C)NC(=O)[C@@H]2C[C@@H](O)CN2C(=O)[C@@H](c2cc(OCCN3CCN4c5cc(-c6ccccc6O)nnc5NC[C@H]4C3)no2)C(C)C)cc1 (single isomer, unassigned)
2. C#Cc1ccc(CNC(=O)[C@@H]2C[C@@H](O)CN2C(=O)[C@@H](NC(=O)N2CCN(C[C@H]3CC[C@@H](N4CCc5[nH]c6nnc(-c7ccccc7O)cc6c5[C@H]4C)CC3)CC2)C(C)(C)C)cc1
3. C#Cc1ccc(CNC(=O)[C@@H]2C[C@@H](O)CN2C(=O)[C@@H](NC(=O)N2CC3(CC(c4cnc(N5CCC(N6CCN7c8cc(-c9ccccc9O)nnc8NC[C@H]7C6)CC5)nc4)C3)C2)C(C)(C)C)cc1
4. Cc1ncsc1-c1ccc(CNC(=O)[C@@H]2C[C@@H](O)CN2C(=O)[C@@H](NC(=O)[C@H]2CC3(C2)C[C@H](N2CCC(N4CCC(c5ccc6[nH]c7nnc(-c8ccccc8O)cc7c6c5)CC4)CC2)C3)C(C)(C)C)cc1 (single isomer, unassigned)

1: > 90%; 2: > 90%; 3: > 90%; 4: 70 to 90%

---

measured.target: SMARCA2 (Homo sapiens, UniProt P51531)
Sequence (P51531 whole entry): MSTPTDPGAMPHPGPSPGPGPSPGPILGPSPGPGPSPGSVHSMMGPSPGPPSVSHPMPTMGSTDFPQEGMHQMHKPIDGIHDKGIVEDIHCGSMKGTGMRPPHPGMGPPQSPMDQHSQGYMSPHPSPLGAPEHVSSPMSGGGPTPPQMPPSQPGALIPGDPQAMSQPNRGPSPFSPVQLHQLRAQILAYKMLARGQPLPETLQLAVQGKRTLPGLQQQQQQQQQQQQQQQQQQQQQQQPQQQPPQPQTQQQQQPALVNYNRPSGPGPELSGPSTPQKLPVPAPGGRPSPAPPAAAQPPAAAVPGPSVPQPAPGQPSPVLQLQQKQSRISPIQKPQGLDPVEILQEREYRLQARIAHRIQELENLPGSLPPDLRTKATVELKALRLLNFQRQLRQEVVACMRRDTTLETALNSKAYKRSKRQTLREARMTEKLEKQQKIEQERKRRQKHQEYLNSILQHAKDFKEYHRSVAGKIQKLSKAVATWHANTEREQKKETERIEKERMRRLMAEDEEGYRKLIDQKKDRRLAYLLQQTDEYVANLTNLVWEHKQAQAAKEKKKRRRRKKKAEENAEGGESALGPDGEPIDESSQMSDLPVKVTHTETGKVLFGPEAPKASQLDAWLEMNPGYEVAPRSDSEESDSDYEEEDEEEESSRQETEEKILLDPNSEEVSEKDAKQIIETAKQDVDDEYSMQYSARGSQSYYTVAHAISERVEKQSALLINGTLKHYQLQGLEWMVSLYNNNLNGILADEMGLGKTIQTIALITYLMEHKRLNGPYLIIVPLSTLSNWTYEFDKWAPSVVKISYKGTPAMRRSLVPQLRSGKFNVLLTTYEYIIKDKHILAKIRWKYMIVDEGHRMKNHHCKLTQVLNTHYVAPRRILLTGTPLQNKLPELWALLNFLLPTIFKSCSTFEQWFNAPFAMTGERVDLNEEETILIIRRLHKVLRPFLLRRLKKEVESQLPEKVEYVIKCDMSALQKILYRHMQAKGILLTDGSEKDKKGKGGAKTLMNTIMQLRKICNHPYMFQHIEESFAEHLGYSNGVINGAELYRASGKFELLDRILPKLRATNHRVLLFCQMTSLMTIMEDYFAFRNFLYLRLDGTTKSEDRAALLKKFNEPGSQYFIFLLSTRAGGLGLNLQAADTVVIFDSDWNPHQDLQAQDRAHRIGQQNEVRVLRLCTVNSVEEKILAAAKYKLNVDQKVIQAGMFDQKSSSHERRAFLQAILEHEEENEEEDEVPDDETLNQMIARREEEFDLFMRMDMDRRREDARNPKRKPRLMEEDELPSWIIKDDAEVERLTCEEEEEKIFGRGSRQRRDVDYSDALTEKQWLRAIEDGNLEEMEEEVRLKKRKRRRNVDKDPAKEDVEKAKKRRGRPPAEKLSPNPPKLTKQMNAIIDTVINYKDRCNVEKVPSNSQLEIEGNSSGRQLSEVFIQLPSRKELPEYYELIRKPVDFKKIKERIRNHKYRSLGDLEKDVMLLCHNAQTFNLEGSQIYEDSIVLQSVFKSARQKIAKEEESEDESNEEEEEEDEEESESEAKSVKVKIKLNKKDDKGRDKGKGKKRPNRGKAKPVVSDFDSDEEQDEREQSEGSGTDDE
assay.info: SMARCA2 Western blot degradation in MV4-11 cells
Assay type: cell-based
Design: SMARCA2/SMARCA4 protein degradation selectivity in MV4-11 cells; endogenous in cells; host or cells: MV4-11
experimental.parameters: MV4-11 cells, 24 h; read-out: SMARCA2 MSD MV411 degradation 24 h: Mean external-Abs DC50
endpoint.label: DC50

Dear reader, for each entry below, please note its DC50.
1. C#Cc1cnc(CNC(=O)[C@@H]2C[C@@H](O)CN2C(=O)[C@@H](NC(=O)[C@H]2CCC3(CC2)C[C@H](N2CCC(c4cnc(N5CCN6c7cc(-c8ccccc8O)nnc7NC[C@H]6C5)nc4)CC2)C3)C(C)(C)C)c(OC)c1 (single isomer, unassigned) [I-298]
2. C#Cc1ccc(CNC(=O)[C@@H]2C[C@@H](O)CN2C(=O)[C@@H](NC(=O)N2CC3(CC(N4CCC(c5cnc(N6CCc7[nH]c8nnc(-c9ccccc9O)cc8c7[C@H]6CO)nc5)CC4)C3)C2)C(C)(C)C)cc1 [I-146]

1. > 100 nM
2. 1 to 10 nM
